Below, each entry is listed with its recorded clearance.
assayProtocol: Clearance in cannulated Sprague-Dawley rat at 2 mg/kg, iv administered as 10 mins infusion by LC-MS/MS analysis
Type: ADME, organism-based
appliedConditions: in vivo
Form entry: value (mL/min/kg) — number only.

CCNc1cc2oc(-c3ccc(F)cc3)c(C(=O)NC)c2cc1-c1ccc(OC)c(C(=O)NC2(c3ncccn3)CC2)c1 | 11

Would you kindly look at the next entry?
Ask: Consider the molecule CCN(c1cc2oc(-c3ccc(F)cc3)c(C(=O)NC)c2cc1-c1ccc(OC)c(C(=O)NC2(c3ncccn3)CC2)c1)S(C)(=O)=O and give its recorded clearance.
Result: 60
